- Test system: Escherichia coli TOP10
- experiment: shrunken log2 fold change of peptide-encoding DNA abundance (4.5 h post-induction vs induction); higher = less antimicrobial activity (less host growth inhibition)
- applied conditions: time post-induction: 4.5 h; library: site-saturation at positions 5, 18, 19, 20
Please assign a class to every record based on measured shrunken log2 fold change, with ranges low bin: < -0.1; mid bin: ≥ -0.1 and < 0.1; high bin: ≥ 0.1

Please review the following examples before continuing.
RRIRYRPPRLPRPRPRPRYIPRP
low bin
RRIRCRPPRLPRPRPRPFWIPRP
low bin

Qu. Could you tell me which band RRIRVRPPRLPRPRPRPRHKPRP belongs to?
Ans. high bin

Qu. Could you tell me which band RRIRHRPPRLPRPRPRPITGPRP belongs to?
Ans. mid bin

Qu. Could you tell me which band RRIRSRPPRLPRPRPRPFFPPRP belongs to?
Ans. low bin

Qu. Could you tell me which band RRIRYRPPRLPRPRPRPDSDPRP belongs to?
Ans. low bin

Qu. Could you tell me which band RRIRKRPPRLPRPRPRPRVSPRP belongs to?
Ans. high bin

Qu. Could you tell me which band RRIRRRPPRLPRPRPRPWWSPRP belongs to?
Ans. high bin

Qu. Could you tell me which band RRIRKRPPRLPRPRPRPCWMPRP belongs to?
Ans. high bin

Qu. Could you tell me which band RRIRTRPPRLPRPRPRPEPAPRP belongs to?
Ans. high bin

Qu. Could you tell me which band RRIRTRPPRLPRPRPRPRVHPRP belongs to?
Ans. mid bin

Qu. Could you tell me which band RRIRQRPPRLPRPRPRPDQFPRP belongs to?
Ans. high bin

* * *

- Tested on: Escherichia coli TOP10
- experiment: shrunken log2 fold change of peptide-encoding DNA abundance (4.5 h post-induction vs induction); higher = less antimicrobial activity (less host growth inhibition)
- applied conditions: time post-induction: 4.5 h; library: site-saturation at positions 5, 18, 19, 20
Measured shrunken log2 fold change accompanies every entry in the list below.
Please respond with just the number, no unit label.

Some entries whose results are on file:
RRIRERPPRLPRPRPRPGNHPRP
-0.141
RRIRRRPPRLPRPRPRPYYTPRP
1.46
RRIRNRPPRLPRPRPRPYTTPRP
-0.83
RRIRSRPPRLPRPRPRPAISPRP
0.153
RRIRVRPPRLPRPRPRPYSPPRP
-0.181
RRIRPRPPRLPRPRPRPCIAPRP
0.00774
RRIRARPPRLPRPRPRPCSFPRP
0.134
RRIRERPPRLPRPRPRPYGYPRP
-0.0695
RRIRDRPPRLPRPRPRPHTNPRP
-0.367
RRIRMRPPRLPRPRPRPAYFPRP
-0.197

Qu. Quick one: shrunken log2 fold change of RRIRRRPPRLPRPRPRPNEYPRP ?
Ans. -0.123

Qu. Quick one: shrunken log2 fold change of RRIRERPPRLPRPRPRPFYCPRP ?
Ans. 0.0826

Qu. Quick one: shrunken log2 fold change of RRIRERPPRLPRPRPRPSCGPRP ?
Ans. 0.0151

Qu. Quick one: shrunken log2 fold change of RRIRARPPRLPRPRPRPQHYPRP ?
Ans. -0.474

Qu. Quick one: shrunken log2 fold change of RRIRYRPPRLPRPRPRPWRFPRP ?
Ans. -0.00218

* * *

- System: Escherichia coli TOP10
- experiment: shrunken log2 fold change of peptide-encoding DNA abundance (4.5 h post-induction vs induction); higher = less antimicrobial activity (less host growth inhibition)
- applied conditions: time post-induction: 4.5 h; library: site-saturation at positions 5, 18, 19, 20
Measured shrunken log2 fold change accompanies every entry in the list below.
Please respond with just the number, no unit label.

Qu. Quick one: shrunken log2 fold change of RRIRDRPPRLPRPRPRPWSGPRP ?
Ans. -0.0455

Qu. Quick one: shrunken log2 fold change of RRIRQRPPRLPRPRPRPSITPRP ?
Ans. -0.731

Qu. Quick one: shrunken log2 fold change of RRIRQRPPRLPRPRPRPFLFPRP ?
Ans. -0.288

Qu. Quick one: shrunken log2 fold change of RRIRGRPPRLPRPRPRPLFAPRP ?
Ans. 1.36

Qu. Quick one: shrunken log2 fold change of RRIRIRPPRLPRPRPRPPNEPRP ?
Ans. -0.365

* * *

- Test system: Escherichia coli TOP10
- experiment: shrunken log2 fold change of peptide-encoding DNA abundance (4.5 h post-induction vs induction); higher = less antimicrobial activity (less host growth inhibition)
- applied conditions: time post-induction: 4.5 h; library: site-saturation at positions 5, 18, 19, 20
Measured shrunken log2 fold change accompanies every entry in the list below.

Some entries whose results are on file:
RRIRRRPPRLPRPRPRPNRPPRP
0.198
RRIRARPPRLPRPRPRPVHNPRP
0.11
RRIRMRPPRLPRPRPRPHIAPRP
0.13
RRIRARPPRLPRPRPRPFYDPRP
0.314
RRIRARPPRLPRPRPRPDQHPRP
0.0116
RRIRPRPPRLPRPRPRPNAAPRP
0.237
RRIRTRPPRLPRPRPRPWQRPRP
0.157
RRIRPRPPRLPRPRPRPTGGPRP
0.392

Qu. Quick one: shrunken log2 fold change of RRIRVRPPRLPRPRPRPNCCPRP ?
Ans. -0.0903

Qu. Quick one: shrunken log2 fold change of RRIRARPPRLPRPRPRPNGLPRP ?
Ans. -0.0319

Qu. Quick one: shrunken log2 fold change of RRIRARPPRLPRPRPRPLTDPRP ?
Ans. 0.163

Qu. Quick one: shrunken log2 fold change of RRIRQRPPRLPRPRPRPTKMPRP ?
Ans. -0.239

Qu. Quick one: shrunken log2 fold change of RRIRFRPPRLPRPRPRPWWVPRP ?
Ans. 0.00262

Qu. Quick one: shrunken log2 fold change of RRIRCRPPRLPRPRPRPWAYPRP ?
Ans. -0.508

* * *

- Tested on: Escherichia coli TOP10
- experiment: shrunken log2 fold change of peptide-encoding DNA abundance (4.5 h post-induction vs induction); higher = less antimicrobial activity (less host growth inhibition)
- applied conditions: time post-induction: 4.5 h; library: site-saturation at positions 5, 18, 19, 20
Measured shrunken log2 fold change accompanies every entry in the list below.
Please respond with just the number, no unit label.

Some entries whose results are on file:
RRIRRRPPRLPRPRPRPPHFPRP
0.897
RRIRYRPPRLPRPRPRPMCFPRP
-0.335
RRIRSRPPRLPRPRPRPEWDPRP
0.365
RRIRYRPPRLPRPRPRPHPTPRP
-0.289
RRIRMRPPRLPRPRPRPNVHPRP
-0.333
RRIRNRPPRLPRPRPRPTPRPRP
0.677
RRIRSRPPRLPRPRPRPATTPRP
0.584
RRIRWRPPRLPRPRPRPNEEPRP
-0.0212
RRIRGRPPRLPRPRPRPWHIPRP
-0.111
RRIRWRPPRLPRPRPRPHIQPRP
-0.749

Qu. Lookup: shrunken log2 fold change / Escherichia coli TOP10 / RRIRNRPPRLPRPRPRPYDFPRP
Ans. 0.0143

Qu. Lookup: shrunken log2 fold change / Escherichia coli TOP10 / RRIRMRPPRLPRPRPRPDEGPRP
Ans. -0.0141

Qu. Lookup: shrunken log2 fold change / Escherichia coli TOP10 / RRIRARPPRLPRPRPRPWAPPRP
Ans. 0.0486

Qu. Lookup: shrunken log2 fold change / Escherichia coli TOP10 / RRIRSRPPRLPRPRPRPDACPRP
Ans. 0.322

Qu. Lookup: shrunken log2 fold change / Escherichia coli TOP10 / RRIRNRPPRLPRPRPRPTAVPRP
Ans. 0.495

* * *

Measured shrunken log2 fold change accompanies every entry in the list below.
- System: Escherichia coli TOP10
- experiment: shrunken log2 fold change of peptide-encoding DNA abundance (4.5 h post-induction vs induction); higher = less antimicrobial activity (less host growth inhibition)
- applied conditions: time post-induction: 4.5 h; library: site-saturation at positions 5, 18, 19, 20
Please respond with just the number, no unit label.

Some entries whose results are on file:
RRIRFRPPRLPRPRPRPNKFPRP
-0.783
RRIRRRPPRLPRPRPRPQVWPRP
0.409
RRIRGRPPRLPRPRPRPIMCPRP
0.0901
RRIRIRPPRLPRPRPRPWQDPRP
-0.0109
RRIRYRPPRLPRPRPRPFQMPRP
-0.143
RRIRIRPPRLPRPRPRPAREPRP
0.604

Consider now this further sequence.
Qu. Quick one: shrunken log2 fold change of RRIRNRPPRLPRPRPRPMDGPRP ?
Ans. -0.261

* * *

- System: Escherichia coli TOP10;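 also: peptides expressed intracellularly from a pBAD plasmid library in pooled LB shake-flask culture, induced with 0.3% L-arabinose, DNA abundance read by NGS, three biological replicates, DESeq2 with apeglm shrinkage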
- experiment: shrunken log2 fold change of peptide-encoding DNA abundance (4.5 h post-induction vs induction); higher = less antimicrobial activity (less host growth inhibition)
- applied conditions: time post-induction: 4.5 h; library: site-saturation at positions 5, 18, 19, 20
assay endpoint: shrunken log2 fold change
Please respond with just the number, no unit label.

Qu. Quick one: shrunken log2 fold change of RRIRQRPPRLPRPRPRPPYMPRP ?
Ans. -0.184

Qu. Quick one: shrunken log2 fold change of RRIRVRPPRLPRPRPRPYDHPRP ?
Ans. -0.347

Qu. Quick one: shrunken log2 fold change of RRIRKRPPRLPRPRPRPVNKPRP ?
Ans. 0.22

Qu. Quick one: shrunken log2 fold change of RRIRARPPRLPRPRPRPKPVPRP ?
Ans. 0.882

Qu. Quick one: shrunken log2 fold change of RRIRARPPRLPRPRPRPNGCPRP ?
Ans. -0.0858

Cited source: the supplement of paper PMC9112550
